I'd be grateful if you could share measured pIC50 for these entries.
- tested_system: human alpha2C receptors (Homo sapiens, UniProt P18825)
- Sequence (P18825 whole entry): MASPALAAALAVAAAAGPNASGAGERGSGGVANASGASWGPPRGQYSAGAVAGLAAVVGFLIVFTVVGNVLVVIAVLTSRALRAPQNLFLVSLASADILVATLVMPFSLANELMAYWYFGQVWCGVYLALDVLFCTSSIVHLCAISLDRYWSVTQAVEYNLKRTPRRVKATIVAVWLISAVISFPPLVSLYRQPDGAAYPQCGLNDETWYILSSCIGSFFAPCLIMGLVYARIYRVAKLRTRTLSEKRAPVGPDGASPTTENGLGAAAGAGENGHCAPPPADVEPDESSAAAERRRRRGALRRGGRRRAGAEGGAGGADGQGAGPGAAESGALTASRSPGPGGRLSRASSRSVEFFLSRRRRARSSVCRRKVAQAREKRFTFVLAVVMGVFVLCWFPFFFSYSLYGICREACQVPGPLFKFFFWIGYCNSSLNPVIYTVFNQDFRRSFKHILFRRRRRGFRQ
- measurement_protocol: Determination of alpha2C antagonistic activity in vitro (FLIPR calcium assay)
pIC50 field: float, defined as -log10 of concentration (mol/L).

Incoming: What pIC50 value was documented for this compound, CCCN1C(=O)C(=O)N([C@H]2CCCN(C[C@H]3COc4ccccc4O3)C2)C1=O [example 132] ?
Outgoing: 9.51

Incoming: What pIC50 value was documented for this compound, O=C1OC(c2ccc(F)cc2)CN1[C@H]1CCCN(C[C@H]2COc3ccccc3O2)C1 (stereo partly shown) [example 21] ?
Outgoing: 8.72

Incoming: What pIC50 value was documented for this compound, CN1C(=O)N([C@H]2CCCN(C[C@H]3COc4ccccc4O3)C2)C(=O)C12CC2 [example 123] ?
Outgoing: 8.45

Data provenance is patent US20190152992A1.
